The reader will find reported IC50 values listed item by item below.
- target entity: HCV RdRp (NS5B RNA-dependent RNA polymerase) (Hepatitis C virus genotype 1b, UniProt P26663)
- Construct: The HCV NS5B protein is the viral RdRp; made in house; host or cells: insect cells infected with recombinant baculovirus
- Sequence (P26663 2420-3010): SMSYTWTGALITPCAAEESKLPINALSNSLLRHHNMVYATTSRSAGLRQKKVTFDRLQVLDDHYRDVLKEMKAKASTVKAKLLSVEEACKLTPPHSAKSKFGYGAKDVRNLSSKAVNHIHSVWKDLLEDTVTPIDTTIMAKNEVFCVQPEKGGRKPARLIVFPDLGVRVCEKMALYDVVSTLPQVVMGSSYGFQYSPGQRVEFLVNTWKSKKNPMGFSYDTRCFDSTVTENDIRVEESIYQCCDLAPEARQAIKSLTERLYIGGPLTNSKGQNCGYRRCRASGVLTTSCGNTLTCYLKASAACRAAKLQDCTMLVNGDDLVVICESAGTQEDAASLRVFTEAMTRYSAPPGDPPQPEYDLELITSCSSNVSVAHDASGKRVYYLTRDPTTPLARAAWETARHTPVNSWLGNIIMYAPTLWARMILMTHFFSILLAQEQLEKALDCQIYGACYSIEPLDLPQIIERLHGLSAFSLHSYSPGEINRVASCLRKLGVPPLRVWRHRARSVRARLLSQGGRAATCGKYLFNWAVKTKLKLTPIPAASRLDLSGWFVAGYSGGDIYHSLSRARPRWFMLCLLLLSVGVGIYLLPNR
- protocol summary: Inhibition of hepatitis C virus RdRp (poly(A)/oligo(U), [3H]UTP incorporation)
- Assay type: biochemical
- condition label: Tables I-VIII; 20 nM NS5B, 1 hour at 22° C.; read-out: IC 50 (μM), HCV-polymerase
Write down the numeric answer in µM and omit the unit.

Task item: # IC50 lookup, item O=C(O)C(O)=CC(=O)c1sccc1Cl [Example 194]
Reply: 16

Task item: Now the compound N#Cc1ccc(Br)cc1COc1cccc(C(=O)C=C(O)C(=O)O)c1 [Example 113]
Reply: 0.1

Task item: Now the compound O=C(O)C(O)=CC(=O)c1cccc(Cc2ccc(F)cc2)c1 [Example 46]
Reply: 30.1

Task item: Now the compound O=C(O)C(O)=CC(=O)c1sccc1Br [Example 199]
Reply: 17

New cases:
Task item: # IC50 lookup, item N#Cc1ccc(-c2ccccc2)cc1COc1cccc(C(=O)C=C(O)C(=O)O)c1 [Example 116]
Reply: 0.3

----------
- target entity: HCV RdRp (NS5B RNA-dependent RNA polymerase) (Hepatitis C virus genotype 1b)
- Construct: The HCV NS5B protein is the viral RdRp; made in house; host or cells: insect cells infected with recombinant baculovirus
- protocol summary: Inhibition of hepatitis C virus RdRp (poly(A)/oligo(U), [3H]UTP incorporation)
- Assay type: biochemical
- condition label: Tables I-VIII; 20 nM NS5B, 1 hour at 22° C.; read-out: IC 50 (μM), HCV-polymerase
- Experimental: In initial tests, the compounds were tested to see if they were effective as inhibitors of the RNA-dependent RNA polymerase (RdRp) of hepatitis C virus (HCV). […] WO96/37619 describes the production of recombinant HCV RdRp from insect cells infected with recombinant baculovirus encoding the enzyme. […] Incorporation of tritiated UTP is quantified by measuring acid-insoluble radioactivity. […] Incorporation of radioactive UMP was measured as follows. […]
The reader will find reported IC50 values listed item by item below.
Write down the numeric answer in µM and omit the unit.

Task item: # IC50 lookup, item N#Cc1ccc(C(=O)Nc2cccc(C(=O)C=C(O)C(=O)O)c2)cc1
Reply: 30

Task item: Now the compound Cc1ccc(OCCCC#N)c(C(=O)C=C(O)C(=O)O)c1
Reply: 0.955

Task item: Now the compound O=C(O)C(O)=CC(=O)c1cccc(NS(=O)(=O)c2ccc(Cl)c(Cl)c2Cl)c1
Reply: 0.17

Task item: Now the compound N#Cc1ccccc1OCc1cccc(C(=O)C=C(O)C(=O)O)c1
Reply: 1.33

Task item: Now the compound Cc1ccccc1C(=O)C=C(O)C(=O)O
Reply: 3

New cases:
Task item: # IC50 lookup, item O=C(O)C(O)=CC(=O)c1cccc(OCc2cccc(F)c2)c1
Reply: 5.8

Task item: Now the compound CCCCCCCOc1ccccc1C(=O)C=C(O)C(=O)O
Reply: 18

----------
- target entity: HCV RdRp (NS5B RNA-dependent RNA polymerase) (Hepatitis C virus genotype 1b, UniProt P26663)
- Construct: The HCV NS5B protein is the viral RdRp; made in house; host or cells: insect cells infected with recombinant baculovirus
- protocol summary: Inhibition of hepatitis C virus RdRp (poly(A)/oligo(U), [3H]UTP incorporation)
- Type: biochemical
- condition label: Tables I-VIII; 20 nM NS5B, 1 hour at 22° C.; read-out: IC 50 (μM), HCV-polymerase
Checkbox rule: IC50 lower than 2 µM = condition met; IC50 not lower than 2 µM = condition not met.

Task item: Consider the molecule O=C(O)C(O)=CC(=O)c1cccc(OCc2ccc(C(=O)O)cc2Cl)c1 [Example 100] . Is its IC50 strictly less than 2 µM?
Reply: condition not met

Task item: Now the molecule O=C(O)C(O)=CC(=O)c1cccc(OCc2ccc(F)cc2Cl)c1 [Example 87]
Reply: condition not met

Task item: Now the molecule O=C(O)C(O)=CC(=O)c1cccc(OCc2ccsc2C(=O)O)c1 [Example 84]
Reply: condition met

New cases:
Task item: Consider the molecule O=C(O)C(O)=CC(=O)c1ccc(Cc2cccc(F)c2)s1 [Example 205] . Is its IC50 strictly less than 2 µM?
Reply: condition not met

Task item: Now the molecule O=C(Nc1cccc(C(=O)C=C(O)C(=O)O)c1)OCc1ccccc1 [Example 81]
Reply: condition met

----------
- target entity: HCV RdRp (NS5B RNA-dependent RNA polymerase) (Hepatitis C virus genotype 1b, UniProt P26663)
- Construct: The HCV NS5B protein is the viral RdRp; made in house; host or cells: insect cells infected with recombinant baculovirus
- protocol summary: Inhibition of hepatitis C virus RdRp (poly(A)/oligo(U), [3H]UTP incorporation)
- Type: biochemical
- condition label: Tables IXa-IXc; unit inferred; read-out: HCV (IC50)
Reported IC50 maps to class as: bucket 1 (below 1 µM), bucket 2 (1 µM to below 8 µM), bucket 3 (8 µM or more)

// known answers, use as guide
Task item: Categorize the following entry: O=C(O)C(O)=CC(=O)c1ccc(-c2ccccc2)s1
Reply: bucket 3

Task item: Now the molecule O=C(O)C(O)=CC(=O)c1ccc(-c2ccc(F)c(Cl)c2)o1
Reply: bucket 3

New cases:
Task item: Categorize the following entry: O=C(O)C(O)=CC(=O)c1cc(O)cc(OCc2ccccc2)c1
Reply: bucket 2

Task item: Now the molecule N#Cc1ccccc1COc1cc(O)cc(C(=O)C=C(O)C(=O)O)c1
Reply: bucket 1

Task item: Now the molecule N#CCCCOc1ccccc1C(=O)C=C(O)C(=O)O
Reply: bucket 1

Task item: Now the molecule O=C(O)C(O)=CC(=O)c1cccc(OCc2cc(-c3ccccc3)on2)c1
Reply: bucket 2

Task item: Now the molecule O=C(O)C(O)=CC(=O)c1cccc(OCc2ccsc2C(=O)O)c1
Reply: bucket 1

Task item: Now the molecule N#CCCCOc1ccc(Cl)cc1C(=O)C=C(O)C(=O)O
Reply: bucket 2

----------
The reader will find reported log10 of IC50 values listed item by item below.
- target entity: HCV RdRp (NS5B RNA-dependent RNA polymerase) (Hepatitis C virus genotype 1b, UniProt P26663)
- Construct: The HCV NS5B protein is the viral RdRp; made in house; host or cells: insect cells infected with recombinant baculovirus
- protocol summary: Inhibition of hepatitis C virus RdRp (poly(A)/oligo(U), [3H]UTP incorporation)
- Type: biochemical
- condition label: Tables I-VIII; 20 nM NS5B, 1 hour at 22° C.; read-out: IC 50 (μM), HCV-polymerase
Units before log transform: µM; reported quantity: IC50; transform: log10.

Some solved entries appear below for comparison.
Task item: # log10 of IC50 lookup, item O=C(O)C(O)=CC(=O)c1cc(Cc2ccccc2)ccc1F
Reply: 1.30

Task item: Now the compound O=C(O)C(O)=CC(=O)c1csc2ccccc12
Reply: 1.41

Task item: Now the compound O=C(O)C(O)=CC(=O)C1CCCCC1
Reply: 1.40

Task item: Now the compound O=C(O)C(=O)Nc1cccc(C(=O)C=C(O)C(=O)O)c1
Reply: 1.28

Now turn to the next compound.
Task item: # log10 of IC50 lookup, item N#CCCCOc1ccc(O)cc1C(=O)C=C(O)C(=O)O
Reply: -0.94

----------
- target entity: HCV RdRp (NS5B RNA-dependent RNA polymerase) (Hepatitis C virus genotype 1b)
- Construct: The HCV NS5B protein is the viral RdRp; made in house; host or cells: insect cells infected with recombinant baculovirus
- protocol summary: Inhibition of hepatitis C virus RdRp (poly(A)/oligo(U), [3H]UTP incorporation)
- Type: biochemical
- condition label: Tables I-VIII; 20 nM NS5B, 1 hour at 22° C.; read-out: IC 50 (μM), HCV-polymerase
- Protocol: In initial tests, the compounds were tested to see if they were effective as inhibitors of the RNA-dependent RNA polymerase (RdRp) of hepatitis C virus (HCV). […] WO96/37619 describes the production of recombinant HCV RdRp from insect cells infected with recombinant baculovirus encoding the enzyme. […] Incorporation of tritiated UTP is quantified by measuring acid-insoluble radioactivity. […] Incorporation of radioactive UMP was measured as follows. […]
assay readout: IC50 (µM)
Write down the numeric answer in µM and omit the unit.

Some solved entries appear below for comparison.
Task item: # IC50 lookup, item Cc1ccc(Oc2ccccc2C(=O)C=C(O)C(=O)O)cc1
Reply: 22

Task item: Now the molecule O=C(O)C(O)=CC(=O)c1cccc(OCC2CCCCC2)c1
Reply: 20

Task item: Now the molecule O=C(O)C(O)=CC(=O)c1cccc(Cc2cc(Br)cc(Br)c2)c1
Reply: 32

New cases:
Task item: # IC50 lookup, item O=C(O)C(O)=CC(=O)C1(c2ccccc2)CCN(S(=O)(=O)c2cc(Cl)c(Cl)cc2Cl)CC1
Reply: 21

Task item: Now the molecule O=C(O)C(O)=CC(=O)c1cccc(NS(=O)(=O)c2ccc(Cl)cc2Cl)c1
Reply: 0.5
